Target: LPA/S1P GPCR of interest (Homo sapiens)
Sequence (Q92633 whole entry): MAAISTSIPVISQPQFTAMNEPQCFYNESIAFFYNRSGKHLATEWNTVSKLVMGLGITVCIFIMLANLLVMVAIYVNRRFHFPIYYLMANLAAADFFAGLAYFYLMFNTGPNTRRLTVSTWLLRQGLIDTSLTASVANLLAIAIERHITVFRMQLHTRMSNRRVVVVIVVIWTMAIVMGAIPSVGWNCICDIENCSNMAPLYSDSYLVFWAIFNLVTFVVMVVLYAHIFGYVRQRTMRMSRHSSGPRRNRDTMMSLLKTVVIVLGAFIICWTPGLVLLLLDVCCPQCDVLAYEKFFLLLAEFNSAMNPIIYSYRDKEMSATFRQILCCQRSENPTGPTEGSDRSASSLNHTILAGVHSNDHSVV
Test: Beta-Arrestin based assay (PathHunter)
Protocol: CMV promoter based DNA constructs expressing a fusion of the LPA/S1P GPCR of interest and ProLink™ tag were used to transfect EA Parental™ CHO cells (DiscoverX, Fremont, Calif.) using a FuGENE® transfection kit (Roche). Beta-Arrestin based assays were conducted 24-48 hrs post transfection using PathHunter® assay kits (DiscoverX, Fremont, Calif.). […] End point luminescence data were plotted and fit to a 4 parameter logistic function to obtain IC50 values. […]
Entries and their EC50
Property Label: EC50

# Mol, Property Label, Result
data = [
    ("C[C@@H](OC(=O)Nc1c(-c2cc3sc(-c4ccc(C5(C(=O)O)CC5)cc4F)cc3s2)nnn1C)c1ccccc1", "EC50", "< 0.05 µM"),
    ("C[C@@H](OC(=O)Nc1c(-c2cc3sc(-c4ccc(CC(=O)O)nc4)cc3s2)nnn1C)c1ccccc1", "EC50", "0.05 to 0.5 µM"),
    ("Cc1nsc(-c2cc3sc(-c4ccc(CC(=O)O)s4)cc3s2)c1NC(=O)O[C@H](C)c1ccccc1", "EC50", "> 0.5 µM"),
    ("Cc1noc(-c2ccc(-c3ccc(C(F)(F)C(=O)O)cc3)cc2)c1NC(=O)O[C@H](C)c1ccccc1", "EC50", "< 0.05 µM"),
    ("C[C@@H](OC(=O)Nc1c(-c2cc3sc(-c4ccc(CC(=O)O)cc4F)cc3s2)nnn1C)c1ccccc1", "EC50", "0.05 to 0.5 µM"),
    ("C[C@@H](OC(=O)Nc1c(-c2ccc(-c3ccc(OC(C)(C)C(=O)O)cc3)cc2)oc2ccccc12)c1ccccc1", "EC50", "0.05 to 0.5 µM"),
    ("C[C@@H](OC(=O)Nc1c(-c2cc3sc(-c4ccc5[nH]c(C6(C(=O)O)CC6)nc5c4)cc3s2)nnn1C)c1ccccc1", "EC50", "> 0.5 µM"),
]
